Exercise: for every item that follows, state its recorded IC50.
System: SW480
protocol_details: Cytotoxicity against human SW480 cells assessed as reduction in cell viability incubated for 48hrs by MTT assay
Assay type: functional, cell-based
study_conditions: SW480, 48 h

Would you please look over these solved cases?
COC(=O)C[C@@H]1[C@@H]2C[C@H]([C@H](C)O)[C@@H]3N1CCc1c([nH]c4cc(OC)ccc14)[C@]3(C(=O)OC)C2 = > 10 µM
COC(=O)C[C@@H]1[C@@H]2C[C@H]([C@H](C)O)[C@@H]3N1CCc1c([nH]c4ccc(OC)cc14)[C@]3(C(=O)OC)C2 = > 10 µM
CC[C@H]1C[C@H]2CN3CCc4c([nH]c5cc(OC)c([C@@H]6C[C@H]7[C@@]8(C(=O)OC)CO[C@H](N(C)[C@H]8Cc8c6[nH]c6ccccc86)[C@@]76O[C@H]6C)cc45)[C@](C(=O)OC)(C2)[C@H]13 = > 10 µM
CC[C@H]1C[C@H]2CN3CC[C@@]4(O)C(=Nc5cc(OC)ccc54)[C@](C(=O)OC)(C2)[C@H]13 = 7.5 µM
C/C=C1/CN2COC[C@]3(C(=O)OC)[C@@H]1C[C@@H](c1c(OC)ccc4c5c([nH]c14)[C@]1(C(=O)OC)C[C@H]4C[C@H](CC)[C@@H]1N(CC5)C4=O)c1[nH]c4ccccc4c1C[C@H]23 = > 10 µM

(Q) Returns the measured IC50 for the input molecule. Input: `C/C=C1/CN2COC[C@@]3(C(=O)OC)[C@@H]1C[C@H](c1cc4c5c([nH]c4cc1OC)[C@]1(C(=O)OC)C[C@@H]4C[C@H](CC)[C@@H]1N(CC5)C4)c1[nH]c4ccccc4c1C[C@H]23`
(A) 3.5 µM

---

Tested on: A549
protocol_details: Cytotoxicity against human A549 cells assessed as reduction in cell viability incubated for 48hrs by MTT assay
Type: functional, cell-based
study_conditions: A549, 48 h
pIC50: −log10 of the molar value.
Exercise: for every item that follows, state its recorded pIC50.

Would you please look over these solved cases?
COC(=O)[C@@]12CC3C[C@H]([C@H](C)O)[C@@H]1N(C3)Cn1c2c(C=O)c2ccccc21 = < 5.00
CC[C@H]1C[C@H]2CN3CCc4c([nH]c5cc(OC)c([C@@H]6C[C@H]7[C@@]8(C(=O)OC)CO[C@H](N(C)[C@H]8Cc8c6[nH]c6ccccc86)[C@@]76O[C@H]6C)cc45)[C@](C(=O)OC)(C2)[C@H]13 = > 5.00

Quick request: pIC50 for each listed item, please.
1. C/C=C1/CN(C)[C@H]2Cc3c([nH]c4ccccc34)[C@H](c3c(OC)ccc4c3N[C@]3(OC)[C@]5(C(=O)OC)C[C@H]6C[C@H](CC)[C@@H]5N5CC[C@@]43O[C@H]65)C[C@H]1[C@]2(CO)C(=O)OC
2. C/C=C1/CN2COC[C@@]3(C(=O)OC)[C@@H]1C[C@H](c1cc4c5c([nH]c4cc1OC)[C@]1(C(=O)OC)C[C@@H]4C[C@H](CC)[C@@H]1N(CC5)C4)c1[nH]c4ccccc4c1C[C@H]23
3. C/C=C1/CN(C)[C@H]2Cc3c([nH]c4ccccc34)[C@H](OC)C[C@H]1[C@]2(CO)C(=O)OC

(A)
["< 5.00", 5.07, "< 5.00"]

---

Test system: SMMC-7721
protocol_details: Cytotoxicity against human SMMC7721 cells assessed as reduction in cell viability incubated for 48hrs by MTT assay
Format: functional, cell-based
study_conditions: SMMC-7721, 48 h
pIC50: −log10 of the molar value.
property: pIC50

CC[C@H]1C[C@H]2CN3CCc4c([nH]c5cc(OC)c([C@@H]6C[C@H]7[C@@]8(C(=O)OC)CO[C@H](N(C)[C@H]8Cc8c6[nH]c6ccccc86)[C@@]76O[C@H]6C)cc45)[C@](C(=O)OC)(C2)[C@H]13 = > 5.00
CC[C@H]1C[C@H]2CN3CC[C@@]4(O)C(=Nc5cc(OC)ccc54)[C@](C(=O)OC)(C2)[C@H]13 = < 5.00

# next molecule below
(Q) Returns the measured pIC50 for the input molecule. Input: `C/C=C1/CN(C)[C@H]2Cc3c([nH]c4ccccc34)[C@H](c3c(OC)ccc4c3N[C@]3(OC)[C@]5(C(=O)OC)C[C@H]6C[C@H](CC)[C@@H]5N5CC[C@@]43O[C@H]65)C[C@H]1[C@]2(CO)C(=O)OC`
(A) < 5.00

---

Test system: MCF7
protocol_details: Cytotoxicity against human MCF7 cells assessed as reduction in cell viability incubated for 48hrs by MTT assay
Assay type: functional, cell-based
study_conditions: MCF7, 48 h
pIC50: −log10 of the molar value.
Exercise: for every item that follows, state its recorded pIC50.

COC(=O)[C@@]12CC3C[C@H]([C@H](C)O)[C@@H]1N(C3)Cn1c2c(C=O)c2ccccc21 = < 5.00
C/C=C1/CN(C)[C@H]2Cc3c([nH]c4ccccc34)[C@H](OC)C[C@H]1[C@]2(CO)C(=O)OC = < 5.00
CC[C@H]1C[C@H]2CN3CC[C@@]4(O)C(=Nc5cc(OC)ccc54)[C@](C(=O)OC)(C2)[C@H]13 = < 5.00
CC[C@H]1C[C@H]2CN3CCc4c([nH]c5cc(OC)c([C@@H]6C[C@H]7[C@@]8(C(=O)OC)CO[C@H](N(C)[C@H]8Cc8c6[nH]c6ccccc86)[C@@]76O[C@H]6C)cc45)[C@](C(=O)OC)(C2)[C@H]13 = > 5.00
C/C=C1/CN2COC[C@@]3(C(=O)OC)[C@@H]1C[C@H](c1cc4c5c([nH]c4cc1OC)[C@]1(C(=O)OC)C[C@@H]4C[C@H](CC)[C@@H]1N(CC5)C4)c1[nH]c4ccccc4c1C[C@H]23 = 5.40

Quick request: pIC50 for each listed item, please.
1. C/C=C1/CN(C)[C@H]2Cc3c([nH]c4ccccc34)[C@H](c3c(OC)ccc4c5c([nH]c34)[C@]3(C(=O)OC)C[C@H]4C[C@H](CC)[C@@H]3N(C4)C[C@H]5OC)C[C@H]1[C@]2(CO)C(=O)OC
2. C/C=C1/CN(C)[C@H]2Cc3c([nH]c4ccccc34)[C@H](c3c(OC)ccc4c3N[C@]3(OC)[C@]5(C(=O)OC)C[C@H]6C[C@H](CC)[C@@H]5N5CC[C@@]43O[C@H]65)C[C@H]1[C@]2(CO)C(=O)OC
3. COC(=O)C[C@@H]1[C@@H]2C[C@H]([C@H](C)O)[C@@H]3N1CCc1c([nH]c4ccc(OC)cc14)[C@]3(C(=O)OC)C2

(A)
1: < 5.00; 2: < 5.00; 3: < 5.00

Quick request: pIC50 for each listed item, please.
1. C/C=C1/CN2COC[C@]3(C(=O)OC)[C@@H]1C[C@@H](c1c(OC)ccc4c5c([nH]c14)[C@]1(C(=O)OC)C[C@H]4C[C@H](CC)[C@@H]1N(CC5)C4=O)c1[nH]c4ccccc4c1C[C@H]23
2. COC(=O)C[C@@H]1[C@@H]2C[C@H]([C@H](C)O)[C@@H]3N1CCc1c([nH]c4cc(OC)ccc14)[C@]3(C(=O)OC)C2

(A)
1. < 5.00
2. < 5.00
